TARGET_SYSTEM: HLA-A*0201 (human)
PROCEDURE_DETAILS: competition with 125I-labelled standard peptide for purified HLA, gel filtration
VALUE_TYPE: binding affinity ratio (IC50 of standard peptide / IC50 of test peptide)

Here is how some binders turned out for binding affinity ratio (IC50 of standard peptide / IC50 of test peptide).
• PLVCNGVL (modifications not checked) [Kallikrein 216 PLVGNGVL] = 0.0001
• PIDTFPTDPI (modifications not checked) [PAP 49 …] = 0.0002
• PLMYSLVHNL (modifications not checked) [PSM 468 …] = 0.0008
• PLVCNGVL (modifications not checked) [PSA 212 PLVGNGVL] = 0.0001
• PLERFAELV (modifications not checked) [PAP 352 …] = 0.0001
• PIGYYDAQKL (modifications not checked) [PSM 296 …] = 0.0001

[P] PLILSRIV (modifications not checked) [PSA 15 PLILSRIV]
[Q] PAELTDAVKV (modifications not checked) [PSA 125 …]
## Input I'm curious whether P or Q has the smaller binding affinity ratio (IC50 of standard peptide / IC50 of test peptide) number. Which is it? Answer by quoting the chosen item's label.
## Output P
